Reference for the values: paper PMC3953731

target: Ima1p (Saccharomyces cerevisiae, UniProt P53051); experiment: Substrate specificity of purified isomaltase; type: biochemical; settings: 100 mM substrate (pNPG 5 mM), citrate–potassium phosphate buffer, pH 7, 30 °C
Sequence (P53051 whole entry): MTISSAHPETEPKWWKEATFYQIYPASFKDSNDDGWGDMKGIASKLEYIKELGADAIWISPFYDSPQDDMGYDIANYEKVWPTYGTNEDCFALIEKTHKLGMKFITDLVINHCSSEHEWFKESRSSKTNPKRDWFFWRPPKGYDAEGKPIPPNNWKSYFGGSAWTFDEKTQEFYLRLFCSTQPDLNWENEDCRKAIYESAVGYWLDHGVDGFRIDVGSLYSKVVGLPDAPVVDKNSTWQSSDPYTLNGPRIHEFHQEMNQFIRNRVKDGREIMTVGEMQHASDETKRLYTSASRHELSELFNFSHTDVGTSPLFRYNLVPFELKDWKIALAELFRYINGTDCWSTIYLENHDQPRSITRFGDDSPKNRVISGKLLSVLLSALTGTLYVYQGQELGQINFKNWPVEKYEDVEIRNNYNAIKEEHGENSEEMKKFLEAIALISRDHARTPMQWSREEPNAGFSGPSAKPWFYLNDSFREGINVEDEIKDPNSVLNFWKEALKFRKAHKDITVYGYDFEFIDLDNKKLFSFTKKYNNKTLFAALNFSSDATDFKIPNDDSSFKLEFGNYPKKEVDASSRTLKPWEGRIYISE
Readings of Specific activities for the listed molecules
ENDPOINT_LABEL: Specific activities (µmol/min/mg)

> print(dat)
                                   molecule       endpoint.label  quantitative.result
1  OC[C@H]1O[C@H](O[C@@H]2COC(O)(CO)[C@@H](O)[C@@H]2O)[C@H](O)[C@@H](O)[C@@H]1O (stereo partly drawn)  Specific activities                  8.6
2  OC[C@H]1O[C@H](O[C@H]2O[C@H](CO)[C@@H](O)[C@H](O)[C@H]2O)[C@H](O)[C@@H](O)[C@@H]1O  Specific activities                    0
3  O=[N+]([O-])c1ccc(O[C@@H]2O[C@H](CO)[C@@H](O)[C@H](O)[C@H]2O)cc1 [β-pNPG, 4-Nitrophenyl β-D-glucopyranoside]  Specific activities                    0

====

target: UniProtKB P40884; assay: Substrate specificity of purified isomaltase; format: biochemical; details: 100 mM substrate (pNPG 5 mM), citrate–potassium phosphate buffer, pH 7, 30 °C
Sequence (P40884 whole entry): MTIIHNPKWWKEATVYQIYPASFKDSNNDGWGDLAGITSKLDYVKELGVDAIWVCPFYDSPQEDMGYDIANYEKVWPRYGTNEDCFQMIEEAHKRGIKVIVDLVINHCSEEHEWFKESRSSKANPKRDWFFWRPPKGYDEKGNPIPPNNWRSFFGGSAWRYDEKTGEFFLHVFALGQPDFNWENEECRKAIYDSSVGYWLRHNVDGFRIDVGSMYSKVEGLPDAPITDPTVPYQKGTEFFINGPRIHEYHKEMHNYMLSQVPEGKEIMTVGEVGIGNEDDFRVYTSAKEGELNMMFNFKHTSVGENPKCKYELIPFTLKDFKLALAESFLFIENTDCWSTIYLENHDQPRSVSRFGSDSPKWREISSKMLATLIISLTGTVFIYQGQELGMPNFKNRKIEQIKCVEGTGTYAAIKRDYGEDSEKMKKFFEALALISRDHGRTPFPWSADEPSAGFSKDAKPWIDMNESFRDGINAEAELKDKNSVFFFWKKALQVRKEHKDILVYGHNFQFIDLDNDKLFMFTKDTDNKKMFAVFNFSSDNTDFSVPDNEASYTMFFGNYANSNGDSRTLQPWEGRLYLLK

MOLECULE	TESTED_TARGET	UNIT_DESCRIPTOR	Specific activities
O=[N+]([O-])c1ccc(O[C@H]2O[C@H](CO)[C@@H](O)[C@H](O)[C@H]2O)cc1 [α-pNPG, 4-Nitrophenyl α-D-glucopyranoside]	UniProtKB P40884	µmol/min/mg	10
OC[C@H]1O[C@@](CO)(O[C@H]2O[C@H](CO)[C@@H](O)[C@H](O)[C@H]2O)[C@@H](O)[C@@H]1O [Sucrose, O-α-D-Glucosyl-(1→2)-β-D-fructose]	UniProtKB P40884	µmol/min/mg	1.2
OC[C@H]1O[C@H](OC[C@H]2OC(O)(CO)[C@@H](O)[C@@H]2O)[C@H](O)[C@@H](O)[C@@H]1O (stereo partly drawn) [Palatinose, O-α-D-Glucosyl-(1→6)-D-fructose]	UniProtKB P40884	µmol/min/mg	39
O=C(CO)[C@@H](O[C@H]1O[C@H](CO)[C@@H](O)[C@H](O)[C@H]1O)[C@H](O)[C@H](O)CO [Turanose, O-α-D-Glucosyl-(1→3)-D-fructose]	UniProtKB P40884	µmol/min/mg	1.2
OC[C@H]1O[C@@](CO)(O[C@H]2O[C@H](CO)[C@@H](O)[C@H](O)[C@H]2O)[C@@H](O[C@H]2O[C@H](CO)[C@@H](O)[C@H](O)[C@H]2O)[C@@H]1O [Melezitose]	UniProtKB P40884	µmol/min/mg	0

====

target: Ima2p (Saccharomyces cerevisiae); assay: Kinetic parameters for selected substrates; format: biochemical; settings: mean ± SEM
Sequence (Q08295 whole entry): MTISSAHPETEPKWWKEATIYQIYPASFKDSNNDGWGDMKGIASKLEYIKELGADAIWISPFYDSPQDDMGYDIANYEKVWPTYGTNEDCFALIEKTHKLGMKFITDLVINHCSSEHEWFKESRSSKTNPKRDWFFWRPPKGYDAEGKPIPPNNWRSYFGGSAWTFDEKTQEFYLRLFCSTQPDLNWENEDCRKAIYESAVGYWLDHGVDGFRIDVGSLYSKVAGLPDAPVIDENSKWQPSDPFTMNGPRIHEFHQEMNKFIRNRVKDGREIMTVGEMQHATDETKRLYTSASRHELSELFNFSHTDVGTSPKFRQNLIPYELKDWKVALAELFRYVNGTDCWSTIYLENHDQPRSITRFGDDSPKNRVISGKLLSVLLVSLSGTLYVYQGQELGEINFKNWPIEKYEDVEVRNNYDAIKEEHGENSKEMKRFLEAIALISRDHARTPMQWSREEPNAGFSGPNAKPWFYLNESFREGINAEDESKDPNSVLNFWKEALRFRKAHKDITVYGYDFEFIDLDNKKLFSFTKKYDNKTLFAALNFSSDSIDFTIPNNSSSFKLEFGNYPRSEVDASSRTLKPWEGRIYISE

COMPOUND	TESTED_TARGET	UNIT_DESCRIPTOR	kcat
OC[C@H]1O[C@@](CO)(O[C@H]2O[C@H](CO)[C@@H](O)[C@H](O)[C@H]2O)[C@@H](O)[C@@H]1O	Ima2p (Saccharomyces cerevisiae)	s⁻¹	55
COC1OC(CO)C(O)C(O)C1O (stereo not drawn) [α-MG, α-Methylglucopyranoside]	Ima2p (Saccharomyces cerevisiae)	s⁻¹	88
OC[C@H]1O[C@H](OC[C@H]2O[C@H](O[C@H]3[C@H](O)[C@@H](O)C(O)O[C@@H]3CO)[C@H](O)[C@@H](O)[C@@H]2O)[C@H](O)[C@@H](O)[C@@H]1O (stereo partly drawn)	Ima2p (Saccharomyces cerevisiae)	s⁻¹	7.7
OC[C@H]1O[C@H](OC[C@H]2O[C@H](OC[C@H]3OC(O)[C@H](O)[C@@H](O)[C@@H]3O)[C@H](O)[C@@H](O)[C@@H]2O)[C@H](O)[C@@H](O)[C@@H]1O (stereo partly drawn)	Ima2p (Saccharomyces cerevisiae)	s⁻¹	15
OC[C@H]1O[C@H](OC[C@H]2OC(O)(CO)[C@@H](O)[C@@H]2O)[C@H](O)[C@@H](O)[C@@H]1O (stereo partly drawn)	Ima2p (Saccharomyces cerevisiae)	s⁻¹	104
OC[C@H]1O[C@H](OC[C@H]2O[C@H](O)[C@H](O)[C@@H](O)[C@@H]2O)[C@H](O)[C@@H](O)[C@@H]1O	Ima2p (Saccharomyces cerevisiae)	s⁻¹	97
